B1: CPEB3 Ribozyme (parent)
chain: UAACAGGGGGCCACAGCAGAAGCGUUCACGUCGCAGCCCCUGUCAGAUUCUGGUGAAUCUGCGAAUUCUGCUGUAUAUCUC

variants of: B1; test: self-cleavage, relative activity (ratio to wild type); higher = more cleavage; in vitro, sequencing
MEASUREMENT KIND: self-cleavage
// return just the number, without any unit appended

In the examples that follow, each entry is paired with its recorded self-cleavage.
>>> readout_number("UAACAGGGGGCCCCAGCAGAAGCGUUCACGUCGCAGCCCCUGUCAGAUUCUGGUGAAUCUGCGAAUUCUGCUGUAAAUCUC [A13C U76A]")
1.18
>>> readout_number("UAACAGGGGGCCACAGCAGAAGCGUUCACGUCGCAGCCCCUGUCAGAUUCUGGUGAAUCUGCGAAUUCUGCUGUAUAUCUA [C81A]")
1.05
>>> readout_number("UAACAGGGGGCCACGGCAGAAGCGUUCACGUCGCAGCCCCUGUCAGACUCUGGUGAAUCUGCGAAUUCUGCUGUAUAUCUC [A15G U48C]")
0.46
>>> readout_number("UAACAGGGGGCCACAGCAGAAGCGUUCACGUCGCAGCCCCUGUCAGAUUCUGGCGAAUCUGCGAAUUCUGCUGUACAUCUC [U54C U76C]")
1.06
>>> readout_number("GAACAGGGGGCCACAGCAGAAGCGUUCACGUCGCAGCCCCUGUCAGAUUCUGGUGAAUCUGCGAAUUCUGCAGUAUAUCUC [U1G U72A]")
0.71
>>> readout_number("UAACAGGGGGCCACAGCAGAAGCGUCCACGUCGCAGCCCCUGUCAGAUUCUGGAGAAUCUGCGAAUUCUGCUGUAUAUCUC [U26C U54A]")
0.5

The reported self-cleavage of the variant UAACAGGGGGCCACAGCAGAAGCGUUCACGUCGCAGCCCCUGUCAGAUUCGGGUGAAUCUGCGAAUUAUGCUGUAUAUCUC [U51G C68A] was 0.45

The reported self-cleavage of the variant UAACAGGGGGCCACAGCAGAAGCGUUCACGUCGCAGCCCCUGUCAUAUUCUGGUGAAUCUGCGAGUUCUGCUGUAUAUCUC [G46U A65G] was 0.07

The reported self-cleavage of the variant UAACAGGGGGCCACAGCAGAAGCGUUCACGUCGCAGCCCAUGUCAGAUUCUGGUGAAUCGGCGAAUUCUGCUGUAUAUCUC [C40A U60G] was 0.2

The reported self-cleavage of the variant UAACAGGGGGCCACAGCAGAAGUGUUCACGUCGCAGCCCCUGCCAGAUUCUGGUGAAUCUGCGAAUUCUGCUGUAUAUCUC [C23U U43C] was 0.3

The reported self-cleavage of the variant UAACAGGGGGCCACAGCAGAAGCGUUCACGUCGCAGCCCCUGUCAGAUCCUGGUGAAUAUGCGAAUUCUGCUGUAUAUCUC [U49C C59A] was 0.09
